target-or-test-system: SARS-CoV-2 spike protein S on live virus, Wuhan (strain SARS-CoV-2/Canada/VIDO-01/2020) (SARS-CoV-2 (Wuhan), UniProt P0DTC2 14-1273)
assay-comment: cell-based or functional assay
measurement-type: LVNA IC50 (nM)

NRCoV2-18 VHH-Fc (Fc fusion, bivalent VHH-Fc) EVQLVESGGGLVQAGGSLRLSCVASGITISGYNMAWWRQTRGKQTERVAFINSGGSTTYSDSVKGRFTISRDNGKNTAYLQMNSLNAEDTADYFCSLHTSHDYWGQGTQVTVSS | 6.4
NRCoV2-12 VHH-Fc (Fc fusion, bivalent VHH-Fc) EVQLQQSGGGLVQAGGSLRLSCAASGRTFRNYVMGWFRQAPQAPGKDHEFVAAISWGGTEIYYADSVKGRFTISRDNAKNTVYLQMNSLKPEDTAVYYCAADRGLSYYYTRTTEYNYWGQGTQVTVSS | 2.82

Reference for the values: patent US20240270826A1
